test: AUClast in CD-1 mouse at 10 mg/kg, iv and measured up to 24 hrs by LC/MS-MS analysis; assay type: ADME, organism-based; design: route intravenous, dose 10 mg/kg, time <=24; conditions: in vivo
Each entry below carries its reported AUClast.
Provide only the numeric value, understood in ng·h/mL.

Example entries and their recorded answers appear below.
Cc1ccc(C#Cc2cccc(-c3nn(-c4nc(C(=O)O)cs4)c(CC4CC4)c3Cc3ccc(S(N)(=O)=O)c(F)c3)c2)s1
16530
Cc1ccc(C#Cc2cccc(-c3nn(-c4nc(C(=O)O)cs4)c(CCC4CC4)c3Cc3ccc(S(N)(=O)=O)c(F)c3)c2)s1
9600
Cc1ccc(C#Cc2cc(-c3nn(-c4nc(C(=O)O)cs4)c(CCC4CC4)c3Cc3ccc(S(N)(=O)=O)c(F)c3)ccc2F)s1
6650

input: What AUClast value was documented for this compound, Cc1ncc(C#Cc2cc(-c3nn(-c4nc(C(=O)O)cs4)c(CC4CC4)c3Cc3ccc(S(N)(=O)=O)c(F)c3)ccc2F)s1 ?
output: 1820

input: Quick one: AUClast of Cc1ccc(C#Cc2cc(-c3nn(-c4nc(C(=O)O)cs4)c(CC4CC4)c3Cc3ccc(S(N)(=O)=O)c(F)c3)ccc2F)o1 ?
output: 2320

input: Bench note: what AUClast did NS(=O)(=O)c1ccc(Cc2c(-c3ccc(F)c(/C=C/C4CCCC4)c3)nn(-c3nc(C(=O)O)cs3)c2CC2CC2)cc1F show?
output: 2810

input: Which measured AUClast value corresponds to Cc1ccc(C#Cc2cccc(-c3nn(-c4nc(C(=O)O)cs4)c(CC4CC4)c3Cc3ccc(S(N)(=O)=O)c(F)c3)c2)o1 ?
output: 2280

input: Find the recorded AUClast belonging to Cc1cnc(C#Cc2cc(-c3nn(-c4nc(C(=O)O)cs4)c(CC4CC4)c3Cc3ccc(S(N)(=O)=O)c(F)c3)ccc2F)s1 and report it.
output: 1360

input: Could you tell me which AUClast is on file for Cc1ccc(C#Cc2cc(-c3nn(-c4nc(C(=O)O)cs4)c(CC4CC4)c3Cc3ccc(S(N)(=O)=O)c(F)c3)ccc2F)s1 ?
output: 10570

---

test system: MIA PaCa-2; test: Cytotoxicity against human MIA PaCa-2 cells assessed as reduction in cell viability after 48 hrs by CellTiter-Glo assay; assay type: functional, cell-based; conditions: MIA PaCa-2, 48 h
Readings of log10 of IC50 for the listed compounds
Scale: decimal log of IC50, IC50 in nM.

NS(=O)(=O)c1ccc(Cc2c(-c3cccc(-c4ccccc4)c3)nn(-c3nc(C(=O)O)cs3)c2CC(F)(F)F)cc1
3.50

input: Observed log10 of IC50 on MIA PaCa-2 for CC#Cc1cccc(-c2nn(-c3nc(C(=O)O)cs3)c(CC3CC3)c2Cc2ccc(S(N)(=O)=O)c(F)c2)c1 , please.
output: 2.79

input: Quick check: log10 of IC50 on MIA PaCa-2, item Cc1ccc(C#Cc2cccc(-c3nn(-c4nc(C(=O)O)cs4)c(CCC4CC4)c3Cc3ccc(S(N)(=O)=O)c(F)c3)c2)o1 ?
output: 2.14

---

assay: Terminal half life in CD-1 mouse at 50 mg/kg, po and measured up to 24 hrs by LC/MS-MS analysis; type: ADME, organism-based; settings: in vivo
Entries and their beta t1/2
Kindly provide the numeric value in h only, without the unit symbol.

Some entries whose results are on file:
Cc1cnc(C#Cc2cc(-c3nn(-c4nc(C(=O)O)cs4)c(CC4CC4)c3Cc3ccc(S(N)(=O)=O)c(F)c3)ccc2F)s1
3.54
Cc1ccc(C#Cc2cc(-c3nn(-c4nc(C(=O)O)cs4)c(CC4CC4)c3Cc3ccc(S(N)(=O)=O)c(F)c3)ccc2F)o1
10.7
NS(=O)(=O)c1ccc(Cc2c(-c3ccc(F)c(/C=C/C4CCCC4)c3)nn(-c3nc(C(=O)O)cs3)c2CC2CC2)cc1F
3.1
Cc1ccc(C#Cc2cccc(-c3nn(-c4nc(C(=O)O)cs4)c(CCC4CC4)c3Cc3ccc(S(N)(=O)=O)c(F)c3)c2)s1
3.7
Cc1ccc(C#Cc2cccc(-c3nn(-c4nc(C(=O)O)cs4)c(CC4CC4)c3Cc3ccc(S(N)(=O)=O)c(F)c3)c2)o1
3.7

input: Field request: beta t1/2 | item: Cc1ccc(C#Cc2cc(-c3nn(-c4nc(C(=O)O)cs4)c(CCC4CC4)c3Cc3ccc(S(N)(=O)=O)c(F)c3)ccc2F)s1
output: 3.2

input: Value lookup for beta t1/2; key = Cc1ncc(C#Cc2cc(-c3nn(-c4nc(C(=O)O)cs4)c(CC4CC4)c3Cc3ccc(S(N)(=O)=O)c(F)c3)ccc2F)s1
output: 3.2
